pIC50 for assorted binders
system: T1, ErbB3-mFc (human)
T1 construct: Dimeric soluble ErbB3; also called hErbB3.mFc
T1 chain: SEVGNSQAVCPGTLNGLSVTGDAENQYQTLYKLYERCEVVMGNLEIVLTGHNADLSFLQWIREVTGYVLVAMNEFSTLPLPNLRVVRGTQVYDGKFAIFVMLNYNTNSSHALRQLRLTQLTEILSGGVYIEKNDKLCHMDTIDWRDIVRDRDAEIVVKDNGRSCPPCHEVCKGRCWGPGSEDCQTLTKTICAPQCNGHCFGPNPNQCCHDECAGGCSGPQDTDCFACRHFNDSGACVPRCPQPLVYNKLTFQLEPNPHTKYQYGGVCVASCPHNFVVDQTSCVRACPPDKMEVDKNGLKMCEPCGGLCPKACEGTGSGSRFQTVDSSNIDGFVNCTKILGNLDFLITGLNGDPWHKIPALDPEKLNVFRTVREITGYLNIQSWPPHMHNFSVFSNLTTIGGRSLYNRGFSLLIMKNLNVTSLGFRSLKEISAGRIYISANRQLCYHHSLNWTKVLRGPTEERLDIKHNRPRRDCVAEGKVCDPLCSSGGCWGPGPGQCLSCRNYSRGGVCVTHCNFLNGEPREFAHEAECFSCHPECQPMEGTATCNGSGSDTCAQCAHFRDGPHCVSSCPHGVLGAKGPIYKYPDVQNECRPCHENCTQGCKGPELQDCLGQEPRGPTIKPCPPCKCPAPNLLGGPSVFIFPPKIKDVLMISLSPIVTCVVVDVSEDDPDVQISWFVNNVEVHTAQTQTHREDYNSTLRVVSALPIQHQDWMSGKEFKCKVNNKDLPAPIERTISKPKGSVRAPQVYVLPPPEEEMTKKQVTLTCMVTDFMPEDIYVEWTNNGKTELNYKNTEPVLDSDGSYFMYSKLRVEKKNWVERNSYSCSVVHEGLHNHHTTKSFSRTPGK
testProtocol: blocking ELISA: antibody (0-50 nM) + 50 pM ErbB3-mFc, binding to coated neuregulin1b
// pIC50 here means minus log10 of the molar concentration (mol/L)

binder: H4H2151P (antibody, human IgG4, V domains shown, Human IgG4 Fc (prefix H4H)) VH: QVQLVESGGGVVQPGRSLRLSCAASGFTFSNYGMHWVRQAPGKGLEWVARIWYDGSNKYYADSVKGRFTISRDSSKNTLYLQMNSLRAEDTAVYYCAREGEQNLDYYPLDVWGQGTTVTVSS VL: DIVMTQSPSSLSASVGDRVTITCRASQDIRNDLGWYQQKPGKAPKLLIYAASSLQTGVPSRFSGSVSGTDFTLTISSLQPEDFATYYCLQDYTYPLTFGGGTKVEIK
pIC50: 10.12

pIC50 measured on H4H2138P (antibody, human IgG4, V domains shown, Human IgG4 Fc (prefix H4H)) VH: QVQLQESGPGLVKPSQTLSLTCTVSGGSINSGGYYWSWIRQHPGKGLEWIGYISYSGNTNYNPSLKSRVTISVDTSKNQFSLTLTSVTAADTAVYYCARDSDVDTGLVDGFDVWGQGTMVTVSS VL: DIVMTQSPSSVSASVGDRVTITCRASQGVSSWLAWYQQKPGKAPKLLIYTTSSLQSGVPSRFSGSGSGTDFTLTISSLQPEDFATYYCQQSNSFPFTFGPGTKVEIK = 9.97
